Reported TI values are given for each entry in this list.
Tested on: U937 monocytes
Test: U937 monocyte cytotoxicity, Trypan blue staining
Format: cell-based
Conditions: therapeutic index (TI)=LC50/IC50
Give the value as a plain number.

Fc1cc(CNCCCCNCc2ccc(N3CCCC3)c(F)c2)ccc1N1CCCC1 ... 4
c1cc(N2CCCCC2)ccc1CNCCNCc1ccc(N2CCCCC2)cc1 ... 33
c1cn(-c2ccc(CNCCNCc3ccc(-n4ccnc4)cc3)cc2)cn1 ... 142

Exercise: For "c1cc(N2CCCC2)ccc1CNCCCCNCc1ccc(N2CCCC2)cc1" , what is its reported TI?
Solution: 1

Exercise: For "c1cnn(-c2ccc(CNCCNCc3ccc(-n4cccn4)cc3)cc2)c1" , what is its reported TI?
Solution: 57

Exercise: For "Cc1cc(N2CCCC2)ccc1CNCCCCNCc1ccc(N2CCCC2)cc1C" , what is its reported TI?
Solution: 10

Exercise: For "c1coc(-c2ccc(CNCCNCc3ccc(-c4ccco4)cc3)cc2)c1" , what is its reported TI?
Solution: 2.8

Exercise: For "c1ccc(-c2ccc(CNCCNCc3ccc(-c4ccccc4)cc3)cc2)cc1" , what is its reported TI?
Solution: 1

Exercise: For "c1cnc(-c2ccc(CNCCNCc3ccc(-c4ncccn4)cc3)cc2)nc1" , what is its reported TI?
Solution: 1025
